experimental target: T1, Recombinant human EGFR-Fc (aa 1-645 of the extracellular domain of human EGFR fused to human Fc) (human, UniProt P00533 25-645)
T1 construct: range 1-645; bought from R&D Systems; also called EGFR645-Fc; EGFR-Fc (HER-1); not shown: human Fc
Some binders, each annotated with its measured Kd.
The reply must contain the numeric value and, after it, the unit.

Solved cases (3 shown):
binder	reported
E1-GS10-I1, His-tagged, non-pegylated (designed binder, bispecific EGFR/IGF-IR tandem of two 10Fn3 domains) MGVSDVPRDLEVVAATPTSLLISWVAGAEDYQYYRITYGETGGNSPVQEFTVPHDLVTATISGLKPGVDYTITVYAVTDMMHVEYTEHPISINYRTEIDKGSGSGSGSGSGSGSGSGSGSVSDVPRDLEVVAATPTSLLISWSARLKVARYYRITYGETGGNSPVQEFTVPKNVYTATISGLKPGVDYTITVYAVTRFRDYQPISINYRTEIDKPSQHHHHHH	3.8 nM
E3-GS10-I1, non-pegylated (designed binder) VSDVPRDLEVVAATPTSLLISWLPGKLRYQYYRITYGETGGNSPVQEFTVPHDLRTATISGLKPGVDYTITVYAVTNMMHVEYSEYPISINYRTEIDKGSGSGSGSGSGSGSGSGSGSVSDVPRDLEVVAATPTSLLISWSARLKVARYYRITYGETGGNSPVQEFTVPKNVYTATISGLKPGVDYTITVYAVTRFRDYQPISINYRTEIDKPSQ	0.7 nM
E1-GS10-I1 pegylated, His-tagged (designed binder, 40 kDa branched PEG on the Cys of the C-terminal Cys tail, also called E1-GS10-I1 (with PEG)) MGVSDVPRDLEVVAATPTSLLISWVAGAEDYQYYRITYGETGGNSPVQEFTVPHDLVTATISGLKPGVDYTITVYAVTDMMHVEYTEHPISINYRTEIDKGSGSGSGSGSGSGSGSGSGSVSDVPRDLEVVAATPTSLLISWSARLKVARYYRITYGETGGNSPVQEFTVPKNVYTATISGLKPGVDYTITVYAVTRFRDYQPISINYRTEIDKPCQHHHHHH	57.9 nM

Shift focus to the following entry.
Ask: Give me measured Kd, please, for this binder: E3-GS10-I1 pegylated, His-tagged (designed binder, 40 kDa branched PEG on the Cys of the C-terminal Cys tail, also called E3-GS10-I1-Cys (with his)) MGVSDVPRDLEVVAATPTSLLISWLPGKLRYQYYRITYGETGGNSPVQEFTVPHDLRTATISGLKPGVDYTITVYAVTNMMHVEYSEYPISINYRTEIDKGSGSGSGSGSGSGSGSGSGSVSDVPRDLEVVAATPTSLLISWSARLKVARYYRITYGETGGNSPVQEFTVPKNVYTATISGLKPGVDYTITVYAVTRFRDYQPISINYRTEIDKPCQHHHHHH
Result: 10.4 nM

Taken from patent US20180037631A1.
